Values compiled from patent US4910196A.

Where a name gives a salt, the structure may show the parent alone.
readout label: water solubility (µg/mL)

I. CN1CCN(c2c(F)cc3c(=O)c(C(=O)O)cn4c3c2SCC4)CC1 [methanesulphonate]
II. CN1CCN(c2c(F)cc3c(=O)c(C(=O)O)cn4c3c2SCC4)CC1 [Salt with L-tartaric acid]
Incoming: Among I and II , which shows a numerically higher water solubility result? Give the label of your selection.
Outgoing: I

---

- method summary: physchem
- assay context: water, Solubility in H2O
Where a name gives a salt, the structure may show the parent alone.
readout label: solubility (mg/mL)
Lab book: enter the figure in mg/mL, no units written.

Field solubility (entry CN1CCN(c2c(F)cc3c(=O)c(C(=O)O)cn4c3c2SCC4)CC1 [Salt with gluconic acid] ) reads 360
